# Target Entity: UniProtKB A0A0T9WNE5
# Sequence (A0A0T9WNE5 whole entry): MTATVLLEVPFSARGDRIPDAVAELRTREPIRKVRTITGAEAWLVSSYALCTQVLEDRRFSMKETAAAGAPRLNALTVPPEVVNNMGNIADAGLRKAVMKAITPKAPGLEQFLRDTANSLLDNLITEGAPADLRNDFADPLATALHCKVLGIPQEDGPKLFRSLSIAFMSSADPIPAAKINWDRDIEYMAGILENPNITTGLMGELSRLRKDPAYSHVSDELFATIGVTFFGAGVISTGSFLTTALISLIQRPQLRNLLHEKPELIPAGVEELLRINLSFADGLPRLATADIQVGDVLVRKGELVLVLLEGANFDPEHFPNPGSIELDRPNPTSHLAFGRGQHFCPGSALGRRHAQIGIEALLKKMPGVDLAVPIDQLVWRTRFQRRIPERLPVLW
# Assay Text: Binding affinity to Mycobacterium tuberculosis Mycobacterium tuberculosis CYP121 expressed in Escherichia coli HMS174 (DE3) assessed as compound-adduct formation by measuring high spin complex by UV-visible scanning spectrophotometric analysis relative to control
# Parameters: concentration or dose not given beside the values
Value Type: Activity (%)
// return numeric value only (unit: %, not printed)

Before answering, review these 5 worked examples.
O=C1N[C@@H](Cc2ccc(F)cc2)C(=O)N[C@H]1Cc1ccc(F)cc1 :: 1
COc1ccc(C[C@@H]2NC(=O)[C@H](Cc3ccc(O)cc3)NC2=O)cc1 :: 61
O=C1N[C@@H](Cc2ccc(O)cc2)C(=O)N[C@H]1Cc1ccccc1 :: 5
O=C1N[C@@H](Cc2ccc(O)c(I)c2)C(=O)N[C@H]1Cc1ccc(O)c(I)c1 :: 100
O=C1N[C@@H](Cc2ccc(I)cc2)C(=O)N[C@H]1Cc1ccc(I)cc1 :: 3

query: Record lookup: for UniProtKB A0A0T9WNE5, what Activity belongs to COc1ccc(C[C@@H]2NC(=O)[C@H](Cc3ccc(OC)cc3)NC2=O)cc1 ?
result: 35

query: Record lookup: for UniProtKB A0A0T9WNE5, what Activity belongs to O=C1N[C@@H](Cc2ccccc2)C(=O)N[C@H]1Cc1ccccc1 ?
result: 3

query: Record lookup: for UniProtKB A0A0T9WNE5, what Activity belongs to O=C1N[C@@H](Cc2ccc(O)cc2)C(=O)N[C@H]1Cc1ccc(O)cc1 ?
result: 52

* * *

# Target Entity: UniProt:A0A0T9WNE5
# Assay Text: Binding affinity to Mycobacterium tuberculosis CYP121 expressed in Escherichia coli HMS174 (DE3) assessed as compound-adduct formation by measuring high spin complex at 0.5 to 2 mM incubated for 20 mins by EPR Spectroscopic method (reference value: 0%)
Note to self: use 1.0 only for Activity readings below 1%; a reading exactly at 1% still gets 0.0.

O=C1N[C@@H](Cc2ccc(O)cc2)C(=O)N[C@H]1Cc1ccccc1 :: 0.0

query: Is 1% strictly greater than the compound's reported Activity? compound: O=C1N[C@@H](Cc2ccc(O)c(I)c2)C(=O)N[C@H]1Cc1ccc(O)c(I)c1
result: 0.0

query: Is 1% strictly greater than the compound's reported Activity? compound: COc1ccc(C[C@@H]2NC(=O)[C@H](Cc3ccc(OC)cc3)NC2=O)cc1
result: 0.0

query: Is 1% strictly greater than the compound's reported Activity? compound: O=C1N[C@@H](Cc2ccccc2)C(=O)N[C@H]1Cc1ccccc1
result: 1.0

query: Is 1% strictly greater than the compound's reported Activity? compound: COc1ccc(C[C@@H]2NC(=O)[C@H](Cc3ccc(O)cc3)NC2=O)cc1
result: 0.0

These measurements were taken from ChEMBL document CHEMBL4321824.
